Where a SMILES comes first, the peptide text is derived from it. Bridges are numbered along the chain shown (N, C = ends).
rNaV1.4 (Rattus norvegicus) IC50 data
Sequence (P15390 whole entry): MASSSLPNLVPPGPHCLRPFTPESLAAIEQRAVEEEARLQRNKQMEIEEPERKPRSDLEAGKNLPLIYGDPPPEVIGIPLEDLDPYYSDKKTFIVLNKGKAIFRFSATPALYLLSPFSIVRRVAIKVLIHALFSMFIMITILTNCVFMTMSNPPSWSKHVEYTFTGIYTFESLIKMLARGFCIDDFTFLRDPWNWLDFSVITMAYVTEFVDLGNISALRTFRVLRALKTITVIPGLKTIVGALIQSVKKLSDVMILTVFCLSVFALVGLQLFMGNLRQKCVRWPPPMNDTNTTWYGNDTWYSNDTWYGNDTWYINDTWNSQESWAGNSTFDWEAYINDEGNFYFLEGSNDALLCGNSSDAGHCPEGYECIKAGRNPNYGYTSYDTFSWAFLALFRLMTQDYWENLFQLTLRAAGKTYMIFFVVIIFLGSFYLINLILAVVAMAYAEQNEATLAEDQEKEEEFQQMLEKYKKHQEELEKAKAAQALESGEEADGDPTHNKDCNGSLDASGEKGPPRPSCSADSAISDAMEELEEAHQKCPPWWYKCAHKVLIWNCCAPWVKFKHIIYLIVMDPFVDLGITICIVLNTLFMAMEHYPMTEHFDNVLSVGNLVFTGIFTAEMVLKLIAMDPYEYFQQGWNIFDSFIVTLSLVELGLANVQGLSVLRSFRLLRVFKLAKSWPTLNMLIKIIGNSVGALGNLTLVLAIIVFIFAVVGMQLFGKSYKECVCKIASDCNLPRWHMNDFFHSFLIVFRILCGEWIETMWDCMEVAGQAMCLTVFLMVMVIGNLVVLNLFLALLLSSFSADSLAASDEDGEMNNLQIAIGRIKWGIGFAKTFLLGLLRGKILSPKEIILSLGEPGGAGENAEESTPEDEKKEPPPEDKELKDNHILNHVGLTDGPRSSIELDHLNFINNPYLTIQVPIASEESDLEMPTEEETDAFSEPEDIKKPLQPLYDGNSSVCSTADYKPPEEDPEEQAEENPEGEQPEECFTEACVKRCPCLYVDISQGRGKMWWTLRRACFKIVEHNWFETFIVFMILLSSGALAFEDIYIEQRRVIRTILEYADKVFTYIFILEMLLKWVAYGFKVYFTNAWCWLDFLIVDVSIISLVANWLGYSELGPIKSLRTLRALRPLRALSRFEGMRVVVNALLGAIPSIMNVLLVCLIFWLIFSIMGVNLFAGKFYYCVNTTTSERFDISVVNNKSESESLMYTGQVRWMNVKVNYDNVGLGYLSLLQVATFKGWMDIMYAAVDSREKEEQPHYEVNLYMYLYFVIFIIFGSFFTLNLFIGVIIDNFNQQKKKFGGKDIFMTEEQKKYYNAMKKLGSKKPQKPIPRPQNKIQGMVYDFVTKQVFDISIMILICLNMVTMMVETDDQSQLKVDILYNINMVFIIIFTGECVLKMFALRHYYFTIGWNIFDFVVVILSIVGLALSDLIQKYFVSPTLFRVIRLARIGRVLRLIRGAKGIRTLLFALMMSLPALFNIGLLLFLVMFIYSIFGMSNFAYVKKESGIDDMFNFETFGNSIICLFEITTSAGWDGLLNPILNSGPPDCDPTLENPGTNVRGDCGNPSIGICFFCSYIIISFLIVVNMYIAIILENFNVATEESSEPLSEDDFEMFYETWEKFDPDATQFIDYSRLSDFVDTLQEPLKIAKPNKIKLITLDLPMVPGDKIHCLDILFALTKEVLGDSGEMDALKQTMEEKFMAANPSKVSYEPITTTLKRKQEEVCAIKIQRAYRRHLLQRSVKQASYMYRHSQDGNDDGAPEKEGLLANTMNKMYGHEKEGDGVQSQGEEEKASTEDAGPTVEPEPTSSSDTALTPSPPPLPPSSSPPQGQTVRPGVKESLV
Sequence (Q00954 19-218, further chain): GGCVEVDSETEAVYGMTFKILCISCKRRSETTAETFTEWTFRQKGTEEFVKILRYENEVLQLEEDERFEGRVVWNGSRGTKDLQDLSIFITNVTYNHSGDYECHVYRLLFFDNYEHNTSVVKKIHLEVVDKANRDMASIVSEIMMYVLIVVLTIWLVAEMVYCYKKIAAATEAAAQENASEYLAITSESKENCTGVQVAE

Examples with answers:
1. C[C@@H]1NC(=O)[C@H](Cc2c[nH]c3ccccc23)NC(=O)[C@H](CCCNC(=N)N)NC(=O)[C@H](CCC(=O)O)NC(=O)[C@@H](N)CSSC[C@@H](C(N)=O)NC(=O)[C@H](CCCNC(=N)N)NC(=O)[C@H](CC(N)=O)NC(=O)[C@H](Cc2c[nH]c3ccccc23)NC(=O)[C@H](CCCNC(=N)N)NC1=O [PnCS1[R2E], CERWARWNRC ^*] (H-CERWARWNRC-NH2; disulfide 1-10) = > 100 µM
2. C[C@@H]1NC(=O)[C@H](Cc2c[nH]c3ccccc23)NC(=O)[C@H](CCCNC(=N)N)NC(=O)[C@H](C)NC(=O)[C@@H](N)CSSC[C@@H](C(N)=O)NC(=O)[C@H](CCCNC(=N)N)NC(=O)[C@H](CC(N)=O)NC(=O)[C@H](Cc2c[nH]c3ccccc23)NC(=O)[C@H](CCCNC(=N)N)NC1=O [PnCS1[R2A], CARWARWNRC ^*] (H-CARWARWNRC-NH2; disulfide 1-10) = 1.4 µM

Turning now to a further record.
Request: rNaV1.4 (Rattus norvegicus) / IC50 / N=C(N)NCCC[C@@H]1NC(=O)[C@H](CC(N)=O)NC(=O)[C@H](Cc2c[nH]c3ccccc23)NC(=O)[C@H](CCCNC(=N)N)NC(=O)[C@H](CCC(=O)O)NC(=O)[C@H](Cc2c[nH]c3ccccc23)NC(=O)[C@H](CCCNC(=N)N)NC(=O)[C@H](CCCNC(=N)N)NC(=O)[C@@H](N)CSSC[C@@H](C(N)=O)NC1=O [PnCS1[A5E], CRRWERWNRC ^*] (H-CRRWERWNRC-NH2; disulfide 1-10) : value?
Response: > 100 µM
